Tested on: Trypanosoma brucei rhodesiense
Assay: Anti-protozoan data: T.b.r. IC50
Assay type: cell-based
Settings: Tables VI(a), VI(c), read-out: T.b.r. IC50
pIC50: −log10 of the molar value. Counter-ions that a name gives are not always drawn.
If the reported pIC50 equals or exceeds 6, assign true (1). If not, assign false (0).

>>> discrete_label("N=C(NO)c1ccc2oc(CCc3cc4cc(C(=N)NO)ccc4o3)cc2c1")
"false (0)"
>>> discrete_label("Cl.Cl.N=C(N)c1ccc(OCCCCCOc2ccc(-c3cc4cc(C(=N)N)ccc4o3)cc2)cc1 [Compound 50, dihydrochloride]")
"true (1)"
>>> discrete_label("Cl.Cl.N=C(N)c1ccc(OCCCCCCOc2cccc(-c3cc4cc(C(=N)N)ccc4o3)c2)cc1 [Compound 41, dihydrochloride]")
"false (0)"
>>> discrete_label("CC(C)NC(=N)c1ccc(OCCCCOc2ccc(-c3cc4ccc(C(=N)NC(C)C)cc4o3)cc2)cc1.Cl.Cl [Compound 72, dihydrochloride]")
"false (0)"
>>> discrete_label("CC(C)NC(=N)c1ccc(OCCCOc2ccc(-c3cc4ccc(C(=N)NC(C)C)cc4o3)cc2)cc1.Cl.Cl [Compound 69, dihydrochloride]")
"true (1)"

Determine whether this compound has pIC50 no lower than 6: CC(C)NC(=N)c1ccc(OCCCOc2cccc(-c3cc4ccc(C(=N)NC(C)C)cc4o3)c2)cc1.Cl.Cl [Compound 57, dihydrochloride] true (1)

Determine whether this compound has pIC50 no lower than 6: Cl.Cl.c1cc(C2=NCCN2)ccc1OCCCCCCOc1ccc(-c2cc3cc(C4=NCCN4)ccc3o2)cc1 [Compound 55, dihydrochloride] true (1)

Determine whether this compound has pIC50 no lower than 6: Cl.Cl.c1cc(C2=NCCN2)ccc1OCCCOc1ccc(-c2cc3cc(C4=NCCN4)ccc3o2)cc1 [Compound 46, dihydrochloride] true (1)

Determine whether this compound has pIC50 no lower than 6: N=C(NO)c1ccc(OCCCCCOc2ccc(-c3cc4cc(C(=N)NO)ccc4o3)cc2)cc1 false (0)

Determine whether this compound has pIC50 no lower than 6: CONC(=N)c1ccc2oc(CCCCc3cc4cc(C(=N)NOC)ccc4o3)cc2c1 false (0)

Determine whether this compound has pIC50 no lower than 6: Cl.Cl.N=C(N)c1ccc(OCCCCCCOc2ccc(-c3cc4ccc(C(=N)N)cc4o3)cc2)cc1 [Compound 77, dihydrochloride] true (1)

Determine whether this compound has pIC50 no lower than 6: CC(C)NC(=N)c1ccc(OCCCCCOc2ccc(-c3cc4ccc(C(=N)NC(C)C)cc4o3)cc2)cc1.Cl.Cl [Compound 75, dihydrochloride] true (1)

Determine whether this compound has pIC50 no lower than 6: CC(C)NC(=N)c1ccc(OCCCCCOc2ccc(-c3cc4cc(C(=N)NC(C)C)ccc4o3)cc2)cc1.Cl.Cl [Compound 51, dihydrochloride] true (1)

Determine whether this compound has pIC50 no lower than 6: Cl.Cl.c1cc(C2=NCCN2)ccc1OCCCCCOc1ccc(-c2cc3ccc(C4=NCCN4)cc3o2)cc1 [Compound 76, dihydrochloride] true (1)

Determine whether this compound has pIC50 no lower than 6: CC(C)NC(=N)c1ccc(OCCCCOc2cccc(-c3cc4cc(C(=N)NC(C)C)ccc4o3)c2)cc1.Cl.Cl [Compound 36, dihydrochloride] true (1)

Determine whether this compound has pIC50 no lower than 6: CC(C)NC(=N)c1ccc2oc(CCCCc3cc4cc(C(=N)NC(C)C)ccc4o3)cc2c1 [Compound 21, dihydrochloride] true (1)

Determine whether this compound has pIC50 no lower than 6: Cl.Cl.N=C(N)c1ccc(OCCCCCOc2ccc(-c3cc4ccc(C(=N)N)cc4o3)cc2)cc1 [Compound 74, dihydrochloride] true (1)
